Assay: APR_HepG2_MitoMembPot_24hr: Apredica 24-hour HepG2 Assay for Mitochondrial Membrane Potential (AID 2282911)
Conditions: imaging, actives raise or lower the signal
Activity calls are given as the source filed them. The calls were made as follows: active = hit-call score of the fitted dose curve at least 0.9, where 1 is the maximum; inactive = score below 0.9.
Tick one outcome: class 1 (active), class 0 (inactive)

| COMPOUND | CLASS_NAME |
| --- | --- |
| CC(C)COC(=O)CCCCC(=O)OCC(C)C | class 0 |
| CC(C)(O)c1ccc(CNC(=O)c2cccnc2Oc2ccc(F)cc2)cc1 | class 0 |
| OCC(CO)n1cnc(-c2ccc(F)cc2)c1-c1ccnc(Oc2ccccc2)n1 | class 0 |
| CCCCC(CC)COP(=O)(OCC(CC)CCCC)OCC(CC)CCCC (stereo not drawn) | class 0 |
| CSc1ccc(Oc2ccc(S(N)(=O)=O)cc2CN(C)C)cc1C | class 1 |

Hi team, can someone confirm the assay call for CCCCc1nc2cccnc2n1Cc1ccc(-c2ccccc2-c2nnn[nH]2)cc1 ?
class 1

How about O=[Si]=O ?
class 0

How about CN(C)C(=O)NC1(c2ccccc2)CCN(CCC[C@]2(c3ccc(Cl)c(Cl)c3)CCCN(C(=O)c3ccccc3)C2)CC1 ?
class 0

How about CC1(C)C(=O)NC(=O)N1CO ?
class 0

How about O=C1CCCCC1 ?
class 0

====

Read-out: Tumor necrosis factor (Homo sapiens)
Experiment: BSK_LPS_TNFa: BioMAP Diversity Plus: LPS Assay for Tumour Necrosis Factor alpha (TNFa) Biomarker Activity (AID 2283085)
Conditions: primary human HUVEC with PBMC; actives raise or lower the signal
The source made the active and inactive calls. Rule for the calls: active = hit-call score of the fitted dose curve at least 0.9, where 1 is the maximum; inactive = score below 0.9.
Tick one outcome: active, inactive

| MOLECULE | CLASS_NAME |
| --- | --- |
| CCCCC(CC)COC(=O)CCCCCCCC(=O)OCC(CC)CCCC (centres undefined) | inactive |
| CC(=O)S[C@H](C(=O)N[C@H]1Cc2ccccc2[C@H]2CCC[C@@H](C(=O)O)N2C1=O)C(C)C | inactive |
| CCC(C)N(C)C(=O)c1cc2ccccc2c(-c2ccccc2Cl)n1 (centres undefined) | inactive |
| CC(=O)CC(c1ccccc1)c1c(O)c2ccccc2oc1=O (centres undefined) | active |
| O=NO | inactive |
| NCCOCCOCCN | inactive |
| O=C(O)CC(O)(CC(=O)O)C(=O)O | inactive |
| CC(C)(O)c1ccc(CNC(=O)c2cccnc2Oc2ccc(F)cc2)cc1 | active |

Hi team, can someone confirm the assay call for N[C@@H](Cc1c[nH]c2ccccc12)C(=O)O ?
inactive

How about CCN(CC)CCOc1ccc(C(=C(Cl)c2ccccc2)c2ccccc2)cc1 ?
active

How about C/C=C/C=C/C(=O)O ?
inactive

How about CC(COCC(C)OC(=O)c1ccccc1)OC(=O)c1ccccc1 (centres undefined) ?
inactive

How about COC(=O)CCC(=O)OC ?
inactive

How about OCC(CO)n1cnc(-c2ccc(F)cc2)c1-c1ccnc(Oc2ccccc2)n1 ?
active

====

Assay: Tanguay_ZF_120hpf_OTIC_legacy: (Legacy) Oregon State University Tanguay Lab 120 Hour Post-fertilization zebrafish Assay for Otic Vesicle Malformation (AID 2283639)
Records with an inconclusive call do not appear. Activity calls are given as the source filed them. The calls were made as follows: active = hit-call score of the fitted dose curve at least 0.9, where 1 is the maximum; inconclusive = response in the unintended direction; inactive = score below 0.9.
Tick one outcome: active, inactive

| COMPOUND | CLASS_NAME |
| --- | --- |
| CCc1nc(N)nc(N)c1-c1ccc(Cl)cc1 | inactive |
| S=c1[nH]c2ccccc2s1 | active |
| Cn1cnc2c1c(=O)[nH]c(=O)n2C | inactive |
| O=C1c2c(O)cccc2Cc2cccc(O)c21 | inactive |
| COc1ccc(OC(F)(F)F)cc1CN[C@H]1CCCN[C@H]1c1ccccc1 | inactive |
| CC(C)c1cccc(C(C)C)c1 | inactive |

Hi team, can someone confirm the assay call for CC(COCC(C)OC(=O)c1ccccc1)OC(=O)c1ccccc1 (centres undefined) ?
inactive

How about Cc1cn([C@H]2C=C[C@@H](CO)O2)c(=O)[nH]c1=O ?
inactive

====

Target: human Adrenergic, Alpha 2c Receptor (Adra2C), ADRA2C (gene 152) (UniProt P18825)
Sequence (P18825 whole entry, looked up): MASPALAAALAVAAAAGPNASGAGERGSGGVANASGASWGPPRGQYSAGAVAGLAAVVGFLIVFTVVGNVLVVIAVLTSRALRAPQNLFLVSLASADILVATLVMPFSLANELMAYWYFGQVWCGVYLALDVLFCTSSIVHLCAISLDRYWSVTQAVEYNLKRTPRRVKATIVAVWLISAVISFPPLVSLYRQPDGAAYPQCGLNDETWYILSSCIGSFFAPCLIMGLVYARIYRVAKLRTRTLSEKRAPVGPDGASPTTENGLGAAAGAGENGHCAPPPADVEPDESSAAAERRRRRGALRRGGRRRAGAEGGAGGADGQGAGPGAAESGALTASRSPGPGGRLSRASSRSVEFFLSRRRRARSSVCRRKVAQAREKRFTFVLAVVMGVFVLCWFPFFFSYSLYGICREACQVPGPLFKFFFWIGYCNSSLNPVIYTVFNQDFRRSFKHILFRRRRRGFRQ
Assay: NVS_GPCR_hAdra2C: NovaScreen (NVS) G Protein-Coupled Receptor Assay for human Adrenergic, Alpha 2c Receptor (Adra2C) (AID 2283259)
Procedure: NVS_GPCR_hAdra2C is a biochemical, single-readout assay that uses extracted gene-proteins from SF9 in a cell-free assay. Measurements were taken 1 hour after chemical dosing in a 96-well plate.NVS_GPCR_hAdra2C is one of one assay component(s) measured or calculated from the NVS_GPCR_hAdra2C assay. […] This assay endpoint, NVS_GPCR_hAdra2C, was analyzed in the positive analysis fitting direction relative to DMSO as the negative control and baseline of activity. […]
Inconclusive results are not listed. Activity calls are given as the source filed them. How the source made its calls: active means hit-call score of the fitted dose curve at least 0.9, where 1 is the maximum; inconclusive means response in the unintended direction; inactive means score below 0.9.
QUANTITY_NAME: AC50

Below, each entry is followed by its recorded AC50 result.
| MOL | TARGET_DESC | AC50 |
| --- | --- | --- |
| CCN(CC)CCOc1ccc(C(=C(Cl)c2ccccc2)c2ccccc2)cc1 | human Adrenergic, Alpha 2c Receptor (Adra2C), ADRA2C (gene 152) (UniProt P18825) | 1580 nM (active) |
| CCCCCCCCCCCCCCOS(=O)(=O)O | human Adrenergic, Alpha 2c Receptor (Adra2C), ADRA2C (gene 152) (UniProt P18825) | 2990 nM (active) |

Could you now consider this next molecule?
Please tell me: AC50 of COc1ccc(OC(F)(F)F)cc1CN[C@H]1CCCN[C@H]1c1ccccc1 , system human Adrenergic, Alpha 2c Receptor (Adra2C), ADRA2C (gene 152) (UniProt P18825)?
10600 nM (active)

====

Assay: CCTE_Shafer_MEA_acute_per_burst_spike_number_mean: CCTE's Neural Acute Assay for Average Number of Spikes Per Burst, Shafer Lab (AID 2284015);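 also: hits are decreases in mean spikes per burst versus baseline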
The source made the active and inactive calls. How the source made its calls: active means hit-call score of the fitted dose curve at least 0.9, where 1 is the maximum; inactive means score below 0.9.
Tick one outcome: 1.0 for active, 0.0 for inactive

| MOLECULE | CLASS_NAME |
| --- | --- |
| O=C(O)CN(CC(=O)O)CC(=O)O | 0.0 |
| CN(C)C(=O)NC1(c2ccccc2)CCN(CCC[C@]2(c3ccc(Cl)c(Cl)c3)CCCN(C(=O)c3ccccc3)C2)CC1 | 1.0 |
| CC(N)=O | 0.0 |

Hi team, can someone confirm the assay call for c1ccc2occc2c1 ?
0.0

How about CN(C)C(=O)NC1(c2ccccc2)CCN(CC[C@@]2(c3ccc(F)c(F)c3)CN(C(=O)c3ccccc3)CCO2)CC1 ?
0.0

How about Nc1nc(=S)c2[nH]cnc2[nH]1 ?
1.0

How about Cc1c(C)c2c(c(C)c1O)CCC(C)(COc1ccc(CC3SC(=O)NC3=O)cc1)O2 (configuration not stated) ?
0.0

====

Assay: CCTE_Shafer_MEA_acute_per_network_burst_spike_number_mean: CCTE's Neural Acute Assay for Average Number of Spikes in a Network Burst, Shafer Lab (AID 2284019)
Active and inactive are the calls of the source. The calls were made as follows: active = hit-call score of the fitted dose curve at least 0.9, where 1 is the maximum; inactive = score below 0.9.
Tick one outcome: active, inactive

| MOLECULE | CLASS_NAME |
| --- | --- |
| c1ccc2occc2c1 | inactive |
| CCCCC(CC)COP(=O)(OCC(CC)CCCC)OCC(CC)CCCC (stereo not drawn) | inactive |
| CC1=C(C)S(=O)(=O)CCS1(=O)=O | inactive |
| CCN(CC)CCOc1ccc(C(=C(Cl)c2ccccc2)c2ccccc2)cc1 | inactive |
| C/C=C/c1ccc(OC)cc1 | inactive |
| CN(C)C(=O)NC1(c2ccccc2)CCN(CC[C@@]2(c3ccc(F)c(F)c3)CN(C(=O)c3ccccc3)CCO2)CC1 | inactive |
| CCCC(=O)O | inactive |
| COC(=O)[C@H]1[C@H]2C[C@@H]3c4[nH]c5cc(OC)ccc5c4CCN3C[C@H]2C[C@@H](OC(=O)c2cc(OC)c(OC)c(OC)c2)[C@@H]1OC | active |
| NC(=Nc1ccccc1)Nc1ccccc1 | inactive |
| CC(C)COC(=O)CCCCC(=O)OCC(C)C | inactive |

Hi team, can someone confirm the assay call for CSc1ccc(Oc2ccc(S(N)(=O)=O)cc2CN(C)C)cc1C ?
inactive

How about Nc1nc(=S)c2[nH]cnc2[nH]1 ?
active

How about Cc1ccc(-c2cc(C(F)(F)F)nn2-c2ccc(S(N)(=O)=O)cc2)cc1 ?
inactive

====

Read-out: Monokine induced gamma interferon (MIG), CXCL9 (gene 4283)
Experiment: BSK_SAg_MIG: BioMAP Diversity Plus: SAg Assay for Monokine induced gamma interferon (MIG) Biomarker Activity (AID 2283092)
Settings: primary human HUVEC with PBMC; actives raise or lower the signal
Calls of active or inactive are those of the source. Rule for the calls: active = hit-call score of the fitted dose curve at least 0.9, where 1 is the maximum; inactive = score below 0.9.
Tick one outcome: active, inactive

| MOLECULE | CLASS_NAME |
| --- | --- |
| Oc1ccc(O)cc1 | inactive |
| CC(C)COC(=O)CCCCC(=O)OCC(C)C | inactive |
| CCCCc1nc2cccnc2n1Cc1ccc(-c2ccccc2-c2nnn[nH]2)cc1 | inactive |
| N[C@@H](Cc1c[nH]c2ccccc12)C(=O)O | inactive |
| CCCCCCC(CCCCCCCCCCC(=O)OCC(COC(C)=O)OC(C)=O)OC(C)=O (configuration not stated) | inactive |
| CC(=O)OC1CC(C)OC(C)O1 (configuration not stated) | inactive |
| O=C1O[C@H]([C@H](O)CO)C(O)=C1O | inactive |
| Cc1cc(SC2=C(O)C[C@@](CCc3ccc(N)cc3)(C(C)C)OC2=O)c(C(C)(C)C)cc1CO | inactive |
| Oc1ccccc1O | inactive |
| O=C(O)CC(O)(CC(=O)O)C(=O)O | inactive |

Hi team, can someone confirm the assay call for CC(COCC(C)OC(=O)c1ccccc1)OC(=O)c1ccccc1 (configuration not stated) ?
inactive
